Target: Kappa-type opioid receptor (Homo sapiens, UniProt P41145)
Sequence (P41145 whole entry): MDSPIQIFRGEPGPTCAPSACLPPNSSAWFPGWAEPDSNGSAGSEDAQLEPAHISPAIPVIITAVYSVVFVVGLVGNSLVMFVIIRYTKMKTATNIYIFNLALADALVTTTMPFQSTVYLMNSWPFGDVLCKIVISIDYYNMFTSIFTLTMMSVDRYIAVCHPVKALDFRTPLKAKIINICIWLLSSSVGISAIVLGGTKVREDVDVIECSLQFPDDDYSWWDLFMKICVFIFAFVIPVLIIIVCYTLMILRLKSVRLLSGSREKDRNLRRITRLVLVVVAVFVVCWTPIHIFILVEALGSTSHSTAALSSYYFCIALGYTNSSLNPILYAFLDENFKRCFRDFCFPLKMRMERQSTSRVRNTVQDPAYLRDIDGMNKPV
Test: Agonist activity at kappa opioid receptor in human HEK293 cells assessed as stimulation of Galphai signaling by cAMP assay
reported_property: pEC50
Note on units: pEC50 is unitless, being -log10 of a concentration expressed in mol/L.

Before answering, review these 3 worked examples.
CCOC(=O)CC(=O)O[C@H]1C[C@@H](C(=O)OC)[C@]2(C)CC[C@H]3C(=O)O[C@H](c4ccoc4)C[C@]3(C)[C@H]2C1=O [ETHYLSALVINORINB-2-O-MALONATE] = 7.28
COC(=O)CC(=O)O[C@H]1C[C@@H](C(=O)OC)[C@]2(C)CC[C@H]3C(=O)O[C@H](c4ccoc4)C[C@]3(C)[C@H]2C1=O = 6.86
COC(=O)CCC(=O)O[C@H]1C[C@@H](C(=O)OC)[C@]2(C)CC[C@H]3C(=O)O[C@H](c4ccoc4)C[C@]3(C)[C@H]2C1=O = 6.07

Now look at this one.
Value of pEC50 reported for the compound COC(=O)/C=C/C(=O)O[C@H]1C[C@@H](C(=O)OC)[C@]2(C)CC[C@H]3C(=O)O[C@H](c4ccoc4)C[C@]3(C)[C@H]2C1=O is 7.15
